assay: Drug repurposing screens with cells derived from glioblastoma tumor samples (AID 1345199); conditions: GBM patient neurospheres viability, ATP luminescence, 48 h; at 46.1 µM (top of the series); tumour line C; further: on the % scale 0 is the no-effect control and ±100 the full control effect
Results filed as inconclusive are left out.
Recorded activity, negative = cell killing values for a group of compounds are listed next.
Numeric only. Scale: %

Some solved cases for reference:
CC(O)COc1ccccc1 (centres undefined): -0.412
CCOC(=O)c1ccc(O)cc1: -0.513
N[C@H]1C(O)O[C@H](CO)[C@@H](O)[C@@H]1O (some centres undefined): -6.46
CC1(C)[C@@H]2CC[C@@]1(C)C(=O)C2: -20.2
OC[C@H]1O[C@@H](O[C@@H]2[C@@H](CO)O[C@](O)(CO)[C@H]2O)[C@H](O)[C@@H](O)[C@H]1O: -24.2

Okay, next one:
Name the recorded activity, negative = cell killing for NC(=O)c1ncn([C@@H]2O[C@H](CO)[C@@H](O)[C@H]2O)n1 .
-10.2
